I'd appreciate it if you could supply protein stability index values for the items below.
B1: DLC1 (parent)
chain: AEVVKIRDSFSNQNTETKDTKSR

Variants of: B1
PROTOCOL NOTES: protein stability index of a GFP-peptide fusion (GPS, HEK-293T) (PSI 1-6); higher = more stable;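 also: lentivirally expressed fusions sorted by FACS into six bins by GFP to DsRed ratio, PSI derived from sequencing read proportions per bin multiplied by bin number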
APPLIED CONDITIONS: c terminus: native
// no unit string in output, number only

QUERY: Supply recorded protein stability index for "S11D" here.
RESULT: 2.05

QUERY: Supply recorded protein stability index for "E2N" here.
RESULT: 2.04

QUERY: Supply recorded protein stability index for "K18W" here.
RESULT: 2.05

The reported measurements were obtained from the supplement of paper PMC10567573.
